Overview of reported EC50 across a group of binders:
# target-entity: T1, H7CRECD human IgG1 Fc fusion protein (human, UniProt Q96BF3 23-150)
# T1 construct: also called H7CR fusion protein; not shown: human IgG1 Fc
# T1 sequence: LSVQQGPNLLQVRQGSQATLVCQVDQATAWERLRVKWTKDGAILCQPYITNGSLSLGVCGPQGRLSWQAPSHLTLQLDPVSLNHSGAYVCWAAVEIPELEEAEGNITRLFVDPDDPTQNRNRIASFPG
# experiment-notes: ELISA, H7CRECD human IgG1 Fc immobilized, anti-human IgG4 HRP detection
Kindly answer with a numeric value in pM, unit omitted.

The cases that follow already have their EC50 on record.
1.3 humanized variant V1 (heavy 1A / light 1A) (antibody, V domains shown, Variable domains only; detected with anti-human IgG4 HRP; also called VI; variant 1) VH: QVQLQESGPGLVKPSQTLSLTCTVSGFSISTSGYYWSWIRQHPGKGLEWIGYINYGGGTYYNPSLKSRVTISVDTSKNQFSLKLSSVTAADTAVYYCATMADRFAFFDVWGQGTMVTVSS VL: DIVMTQSPDSLAVSLGERATINCKSSQSLFSSNTNRNYLAWYQQKPGQPPKLLIYHASTRESGVPDRFSGSGSGTDFTLTISSLQAEDVAVYYCQHHYETPLTFGQGTKLEIK yielded EC50 of 840

1.3 humanized variant V4 (heavy 2A / light 1A) (antibody, V domains shown, Variable domains only; detected with anti-human IgG4 HRP) VH: QVQLQESGPGLVKPAQTLSLTCTVSGFSISTSGYYWSWIRQYPGKGLEWIGYINYGGGTYYNPSLKSRVTISVDTSKNQFSLKLTSVTAADTAVYHCATMADRFAFFDVWGQGTMVTVSS VL: DIVMTQSPDSLAVSLGERATINCKSSQSLFSSNTNRNYLAWYQQKPGQPPKLLIYHASTRESGVPDRFSGSGSGTDFTLTISSLQAEDVAVYYCQHHYETPLTFGQGTKLEIK yielded EC50 of 1080

1.3 humanized variant V2 (heavy 1B / light 1A) (antibody, V domains shown, Variable domains only; detected with anti-human IgG4 HRP) VH: QVQLQESGPGLVKPSQTLSLTCTVSGFSISTSGYYWSWIRQHPGKRLEWIGYINYGGGTSYNPSLKSRVTISRDTSKNQFSLKLSSVTAADTAVYCCATMADRFAFFDVWGQGTMVTVSS VL: DIVMTQSPDSLAVSLGERATINCKSSQSLFSSNTNRNYLAWYQQKPGQPPKLLIYHASTRESGVPDRFSGSGSGTDFTLTISSLQAEDVAVYYCQHHYETPLTFGQGTKLEIK yielded EC50 of 230

Others:
1.3 humanized variant V11 (heavy 1B / light 1C) (antibody, V domains shown, Variable domains only; detected with anti-human IgG4 HRP) VH: QVQLQESGPGLVKPSQTLSLTCTVSGFSISTSGYYWSWIRQHPGKRLEWIGYINYGGGTSYNPSLKSRVTISRDTSKNQFSLKLSSVTAADTAVYCCATMADRFAFFDVWGQGTMVTVSS VL: DIVMTQSPDSLAVSLGERATINCLSSQSLFSSNTNRNYLNWYLQKPGQSPKLLIYHASTRLSGVPDRFIGSGSGTDFTLTISSLQAEDVGDYYCQHHYETPLTFGDGTKLEIK yielded EC50 of 1040

1.3 humanized variant V13 (heavy 2B / light 1C) (antibody, V domains shown, Variable domains only; detected with anti-human IgG4 HRP) VH: QVQLQESGPGLVKPAQTLSLTCTVSGFSISTSGYYWSWIRQYPGKRLEWIGYINYGGGTSYNPSLKSRVTISRDTSKNQFSLKLTSVTAADTATYCCATMADRFAFFDVWGQGTMVTVSS VL: DIVMTQSPDSLAVSLGERATINCLSSQSLFSSNTNRNYLNWYLQKPGQSPKLLIYHASTRLSGVPDRFIGSGSGTDFTLTISSLQAEDVGDYYCQHHYETPLTFGDGTKLEIK yielded EC50 of 450
